Test system: MS2 coat protein
Test: apparent Kd, MS2 coat protein; higher = weaker binding; RNA-MaP array
Settings: designed as: ON switch for theophylline; no ligand
assay-metric: apparent Kd (nM)
Your answer is read as nM, so omit the unit and give the number.

CAUAGCAAAAGUGAUACCAGAGUUCGAGGGAACAUGAGGAUCACCCAUGUGCUUGUACAACUCCCUUGGCAGCACAGAGCAAUUA = 23.1
AGUGGUGCAACUGAUACCAGAUUUAUACGAGACAUGAGGAUCACCCAUGUCGAAAGACAAAUCCCUUGGCAGCAGACACGAUCCC = 9.42
CCGUCACAUGAGGAUCACCCAUGUGGUGAUACCAGCAGUCGACCCUGCCCUUGGCAGCACAUUAUCAUAAAAGCAAUCAGCAACG = 156

Return reported apparent Kd; argument: `CAGAGACAUGAGGAUCACCCAUGUUGAGAUACCAGCUUGGUAUCGAGCCCUUGGCAGCUCGCCCAUCGUCUAUAUCAGCCUGAGC`
16.5

Query (sequence): `UCCAGACAUGAGGAUCACCCAUGUUGUGAUACCAGAACCGUGGAGUUCCCUUGGCAGCACUAAGAAGUUCCUGGAUCAGCUAGCG` ; field requested: apparent Kd
27.6

Which measured apparent Kd value corresponds to `GCUUAGAAACCUGAUACCAGUCAGCCCUAUGACAUGAGGAUCACCCAUGUGAUACUCACGGACCCUUGGCAGCAGGGUCGAUUAC` ?
695

###

Listed here: items and their measured apparent Kd.
System: MS2 coat protein
Assay: apparent Kd, MS2 coat protein; higher = weaker binding; RNA-MaP array
Conditions: ligand present: flavin mononucleotide; designed as: OFF switch for flavin mononucleotide
Report only the number, with the unit nM understood.

Take a look at these entries with their results.
ACGGGACAUGAGGAUCACCCAUGUUAGGAUAUACGAACUUCGCCGAACGUGACCAAUUGUAGAAGGAACUUGGU = 14
AAACUUACAGGAUAUACAUGAGGAUCACCCAUGUAAACGAAACACCAGGUGAUAGUGGGUAGAAGGGAAUAAAC = 18.5
AAUUGGUGACUAGGAUAUUAGGGAUGGCCGUACUAAGAAGGAGUCGUGCUAACAUGAGGAUCACCCAUGUAUUGGAAGCCUUAA = 13.4
GACGUGUCGCAGAAGGUGGCGAGGAUAGACAUGAGGAUCACCCAUGUGGGACGCGUUAGGUCUGCCAAGGAUAUGCGCAACUCU = 28.7
GUAUGGGCUGUAAGGAUAUCUAAGCCGGUUGUGGCAGAGAAGGUACAUGAGGAUCACCCAUGUGGACUUGGGUC = 15.7

Param item = `CCUCGUCCGUACAUGAGGAUCACCCAUGUGAGCCCUAAACCCAGAAGGCAAUGAAUACCUAUUCUUGAGGAUAUGGAUCACCGU` ; retrieve measured apparent Kd.
185

Please look up its apparent Kd: `GGUUAACAUGAGGAUCACCCAUGUAAGGAUAUCGGGCUGUCCAGGCGAUAGUACACGUCGAGAAGGUACGCGGU`
12.2

###

Test system: MS2 coat protein
Assay: apparent Kd, MS2 coat protein; higher = weaker binding; RNA-MaP array; tryptophan 2.4 mM where present
Conditions: ligand present: tryptophan; designed as: OFF switch for tryptophan
Quick rule: apparent Kd of at least 50 nM means Yes, below that means No.

Example results:
AGAUUCGACACGGCCGCCACUCGUGACGGAUUUCCGAGUGUCGAACAUGAGGAUCACCCAUGUACGAGGACCGGGUGUUGAGUCU = Yes
AACAUGAGGAUCACCCAUGUGUCCUCGAAACGAGGACCGGUACGGCCGCCACUCGAAUAAGGUGUUGACGAAAAGUCAGCACCAA = Yes
ACAUGAGGAUCACCCAUGUGAAGCAGGGUACGAGGACCGGUACGGCCGCCACUCGAACAUUAUAACGAGUGAAUGGCAACGAUGU = No
AACUUCGCAUAGGAAAACUAUGUGAAGAAUCGAGGACCGGUACGGCCGCCACUCGUCCUCAACAUGAGGAUCACCCAUGUAAUAA = No
AGACUUCGCAUAGGAAAACUAUGUGAAGUCCGAGGACCGGUACGGCCGCCACUCGUCCUCACAUGAGGAUCACCCAUGUAAAUAA = No

Record `AUAAAUAAUAAAUAAAAUAAAAUGGGUGAACGAGGACCGGUACGGCCGCCACUCGGACAUGAGGAUCACCCAUGUCCAUGUGAAA` ; criterion: apparent Kd no lower than 50 nM. Met?
No

Is it the case that `CUCAUCCACGCGGCCGCCACUAUAUUGUGGUGUGAGUGUGACGUAUUACAUGAGGAUCACCCAUGUAGGACCGGGCGUGGAUGAG` has apparent Kd reaching or exceeding 50 nM?
Yes
